Source listed as paper PMC9886283.

Heads up, these compounds all have pIC50 values measured for PI3Kβ (Homo sapiens, UniProt P42338).
Counter-ions that a name gives are not always drawn.
Give bare numbers, as −log10 of the molar value.

Record summary for COc1ccc(CCN2CCC(Nc3nc4ccccc4n3Cc3ccc(F)cc3)CC2)cc1 [astemizole] : reported pIC50 = 5.06

Looking up CC/C(=C(\c1ccccc1)c1ccc(OCCN(C)C)cc1)c1ccccc1 [Tamoxifen, tamoxifen] , I found its pIC50 recorded as 4.85

Reported pIC50 for CO[C@H]1/C=C\C=C(/C)C(=O)NC2=CC(=O)C(NCCN(C)C)=C(C[C@@H](C)C[C@H](OC)[C@H](O)[C@@H](C)/C=C(\C)[C@@H]1OC(N)=O)C2=O [alvespimycin] was 4.16

Okay, now this compound:
Lab book: pIC50 of O=C(c1ccc(OCCN2CCCCC2)cc1)c1c(-c2ccc(O)cc2)sc2cc(O)ccc12 [Raloxifene HCl, raloxifene HCl] noted as 5.08
